A collection of compounds and their measured T/C
- Tested on: L1210 leukemia ip in BDF1 mice, survival T/C
- assay.explanation: NCI In Vivo Anticancer Drug Screen. Data for tumor model L1210 Leukemia (intraperitoneal) in B6D2F1 (BDF1) mice
- protocol.conditions: endpoint: mean survival time; dose: 100.0 mg/kg/injection; schedule: Q01DX009 (ip); vehicle: saline with Tween-80; higher = longer survival
Inconclusive results and toxic doses are left out.
experimental.endpoint: T/C

• ON=C(c1ccc(Cl)cc1)c1ccc(Cl)cc1 = 95 % of control
• CCCC(C)(C)C(=O)Nc1cccc(OC(=O)NC(C)(C)C)c1 = 88 % of control
• CC(C)(C)Sc1ccncc1 = 98 % of control
• C/C(=C\c1ccc([N+](=O)[O-])cc1)C(=O)Nc1ccc(S(=O)(=O)F)cc1 = 95 % of control
• Oc1ccccc1C=NCCN=Cc1ccccc1O = 90 % of control
• Oc1ccc(Cl)c2c1CCC2 = 102 % of control
• CC1(Cc2ccccc2)CCC(=O)O1 (centres undefined) = 98 % of control
• Nc1ccccc1CCc1ccccc1N = 98 % of control
• Cc1cc(-c2cc(C)sc2C)c(C)s1 = 87 % of control
• CCC(=O)O[C@H]1CC[C@H]2[C@@H]3[C@@H](C)CC4=CC(=O)CC[C@]4(C)[C@H]3CC[C@]12C = 93 % of control
• CC1(O)c2cccc3c2C2(O)c4c1cccc4C(C)(O)c1cccc(c12)C3(C)O (centres undefined) = 106 % of control
• CC1CCCCN1C(=O)Nc1ccc(Cl)cc1Cl (centres undefined) = 102 % of control
• CC(=O)Nc1cccc2c1C(=O)OC2=O = 105 % of control
• CC(=O)OCCCCc1ccccc1 = 97 % of control
• O=C(O)c1c(I)c(I)c(I)c(I)c1C(=O)c1ccccc1 = 115 % of control
• S=C(N/N=C/c1ccc(-c2ccccc2)cc1)Nc1ccccc1 = 86 % of control
• O=C1CCCCC/C1=C1\C(=O)Nc2ccc(Br)cc21 = 107 % of control
• CCC(C)C1(C)OC1C(=O)OC (centres undefined) = 93 % of control
• O=C(O)c1c(Cl)c(Cl)c(C(=O)O)c(Cl)c1Cl = 95 % of control

###

- Tested on: L1210 leukemia ip in BDF1 mice, survival T/C
- assay.explanation: NCI In Vivo Anticancer Drug Screen. Data for tumor model L1210 Leukemia (intraperitoneal) in B6D2F1 (BDF1) mice
- protocol.conditions: endpoint: mean survival time; dose: 200.0 mg/kg/injection; schedule: Q01DX009 (ip); vehicle: saline with Tween-80; higher = longer survival
Toxic doses and inconclusive results are not listed.
experimental.endpoint: T/C

- Cn1nnnc1N/N=C/c1ccccc1: 95 % of control
- Cc1cc(-c2cc(C)sc2C)c(C)s1: 92 % of control
- CCCCCC/C=N/Nc1ccc([N+](=O)[O-])cc1[N+](=O)[O-]: 91 % of control
- CCC1(C)CCC2C(=CCC3C(C)(C(=O)O)CCCC23C)C1 (stereo not drawn): 93 % of control
- CCC(C)C1(C)OC1C(=O)OC (stereo not drawn): 86 % of control
- COc1ccc(/C=C2\N=C(c3cccc(Cl)c3)OC2=O)cc1OC: 97 % of control
- CC(C)=CCc1ccc(Cl)cc1: 102 % of control
- CC(C(=O)c1ccc(Br)cc1)C(Br)c1ccccc1 (stereo not drawn): 95 % of control
- O=C1C2C3CCC(CC3)C2C(O)C2C3CCC(C3)C12 (stereo not drawn): 93 % of control
- CCOC(CS(=O)(=O)CC(N)=O)OCC: 95 % of control
- O=C(Oc1c(Cl)cc(Cl)cc1Cl)c1ccccc1: 91 % of control
- CCOc1ccc(NC(=S)NC(=O)c2ccco2)cc1: 93 % of control
- CNc1nc(Cl)nc2ccccc12: 102 % of control

###

- System: L1210 leukemia ip in BDF1 mice, survival T/C
- assay.explanation: NCI In Vivo Anticancer Drug Screen. Data for tumor model L1210 Leukemia (intraperitoneal) in B6D2F1 (BDF1) mice
- protocol.conditions: endpoint: mean survival time; dose: 150.0 mg/kg/injection; schedule: Q01DX001 (ip); vehicle: saline; higher = longer survival
Toxic doses and inconclusive results are not listed.
experimental.endpoint: T/C

* O=C(O)/C=C\c1c[nH]c2ccccc12 (tested in a mixture with another compound) | 105 % of control
* O=C1C[C@@H]2OCC=C3C[N+]4([O-])CC[C@]56c7ccccc7N1[C@H]5[C@H]2[C@H]3C[C@@H]64 (stereo partly drawn) | 106 % of control
* NC(N)=NC(N)=Nc1ccccc1CS | 102 % of control
* CC(C)CC(N)C(=O)NNc1ccccc1 (stereo not drawn) | 103 % of control
* Cn1c(Cc2ccccc2)c(-c2ccccc2)c(-c2ccccc2)c1Cc1ccccc1 | 88 % of control
* OC1CC2CCC(C1)N2 (stereo not drawn) | 91 % of control
* Nc1n[nH]c2cc(=O)[nH]c(O)c12 | 93 % of control
* Fc1ccc(Cl)c2cccnc12 | 102 % of control
* O=[N+]([O-])c1ccc(S(=O)[O-])cc1.O=[N+]([O-])c1ccc(S(=O)[O-])cc1.[Zn+2] | 110 % of control
* O=C1C(=O)c2ccccc2C(O)=C1C(C1=C(O)c2ccccc2C(=O)C1=O)c1ccc(Cl)cc1 | 86 % of control
* CS(=O)(=O)c1nnc(-c2ccc(Cl)c(Cl)c2)s1 | 100 % of control
* O=C(c1ccccc1)C1CNCCC1(O)c1ccccc1 (stereo not drawn) | 95 % of control
* OC(c1ccccc1)C(c1ccccc1)N1CCCC1 (stereo not drawn) | 97 % of control
* CN(C)CCc1ccc(Nc2ccnc3cc(Cl)ccc23)cc1 | 98 % of control
* Cc1noc(C)c1CON | 105 % of control
* O=C(CBr)NC(Cc1ccccc1)C(=O)O (stereo not drawn) | 103 % of control
* CCN(CC)c1ccc(/C=N/NC(=S)NC23CC4CC(CC(C4)C2)C3)cc1 | 101 % of control
* CCCCC(C)C1(C)C(=O)NC(=O)NC1=O (stereo not drawn) | 103 % of control

###

- System: L1210 leukemia ip in BDF1 mice, survival T/C
- assay.explanation: NCI In Vivo Anticancer Drug Screen. Data for tumor model L1210 Leukemia (intraperitoneal) in B6D2F1 (BDF1) mice
- protocol.conditions: endpoint: mean survival time; dose: 100.0 mg/kg/injection; schedule: Q01DX001 (ip); vehicle: carboxymethylcellulose (CMC); higher = longer survival
Inconclusive results and toxic doses are left out.
experimental.endpoint: T/C

• CN=C(NO)c1ccccc1C = 100 % of control
• O/N=C(\c1ccccc1)C(O)c1ccccc1 (stereo not drawn) = 105 % of control
• O=C1NC(=O)C(=Cc2ccccc2[N+](=O)[O-])C(=O)N1 = 93 % of control
• CS(=O)(=O)Oc1c(Cl)c(Cl)c(OS(C)(=O)=O)c(Cl)c1Cl = 101 % of control
• Cc1c(O)ccc(=O)n1O = 113 % of control
• COC(=O)c1ccc(F)cc1 = 97 % of control
• Nc1cccc(OCc2cccc([N+](=O)[O-])c2)c1 = 101 % of control
• COc1ccc(OC)c(CC(C)O)c1 (stereo not drawn) = 101 % of control
• O=C(Nc1cccc(Cl)c1)Nc1ccccc1C(F)(F)F = 106 % of control
• Oc1cccc(/C=N/Nc2nnc(N/N=C/c3cccc(O)c3)c3ccccc23)c1 = 101 % of control
• CC(=O)NC(CSC(=N)N)C(=O)O (stereo not drawn) = 98 % of control
• CCCCC=C(C)C = 93 % of control
• NC(=O)n1ncnc1N = 101 % of control
• CC1(C(N)=O)CCC(C(=O)O)C1(C)C (stereo not drawn) = 109 % of control
• CCC1SC(CC)(CC(C)C)C(=O)NC1=O (stereo not drawn) = 102 % of control
• O=C(c1ccc(O)c(C(=O)O)c1)c1ccc(O)c(C(=O)O)c1 = 95 % of control
• CC(=O)Nc1c(Br)cc2c(c1Br)C(=O)c1ccccc1-2 = 97 % of control
• C1CCC(C2CCCC(C3CCCCC3)C2)CC1 (stereo not drawn) = 94 % of control
• N#CC1(c2ccccc2)CCCCC1 = 96 % of control
• O=C(O)COc1ccc(Cl)cc1Cl (tested in a mixture with another compound) = 93 % of control
• CC(C)O[Si](C)(C)CCl = 86 % of control
• COc1ccc(OC)c(CCCC(=O)O)c1 = 104 % of control
• Fc1cc(N(CCCl)CCCl)ccc1CN1CCCN(Cc2ccc(N(CCCl)CCCl)cc2F)C1c1ccc(N(CCCl)CCCl)cc1Cl = 96 % of control
• C1CCC(N2OC23CCCCC3)CC1 (stereo not drawn) = 92 % of control
• COc1cc(OC)c(OC)cc1/C=C\c1ccnc2ccccc12 = 105 % of control
• Cc1cc2ccccn2c1C(=O)c1ccccc1 = 107 % of control
• COc1ccc(C(=O)CBr)cc1OC = 96 % of control
• CC(CO)(c1c[nH]c2ccccc12)c1c[nH]c2ccccc12 = 96 % of control
